- system.under.test: interaction between biotinylated human S100A9 and human RAGE-Fc (Homo sapiens, UniProt P06702)
- Sequence (P06702 whole entry, one chain of several): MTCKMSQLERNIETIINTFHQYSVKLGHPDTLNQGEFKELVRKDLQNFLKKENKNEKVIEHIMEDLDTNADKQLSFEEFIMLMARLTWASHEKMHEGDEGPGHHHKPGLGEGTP
- test.method.notes: AlphaScreen inhibition assay, Biot-hS100A9:hRAGE-Fc (S100A9-RAGE inhibition assay)
- assay.setup: biot-hS100A9 and rhRAGE-Fc, Ca2+ and Zn2+ in buffer
compounds and their reported pIC50
pIC50 here: minus log base 10 of the concentration, concentration in moles per litre.

Study these solved cases before continuing.
compound: CC(=O)c1cccc2c1nc1n2C(NC(=O)CCC2CCCC2)(C(F)(F)F)C(=O)N1 (single isomer, unassigned) [Example 224b]
numeric.result: 5.00

compound: O=C(CCC1CCCC1)NC1(C(F)(F)F)C(=O)Nc2nc3c(Cl)cccc3n21 (stereo not drawn)
numeric.result: 5.59

compound: Cc1cc2nc3n(c2cc1C)C(NC(=O)CCc1ccccc1Cl)(C(F)(F)F)C(=O)N3 (stereo not drawn)
numeric.result: 5.89

compound: O=C(CCC1(O)CCCC1)NC1(C(F)(F)F)C(=O)Nc2nc3cc(Cl)c(Cl)cc3n21 (stereo not drawn)
numeric.result: 5.79

Can you look up the measured pIC50 of COC(=O)c1cccc(C(=O)NC2(C(F)(F)F)C(=O)Nc3nc4cc(Cl)c(Cl)cc4n32)n1 (stereo not drawn) for me?
5.97

# query: pIC50 of entry O=C(CCC1CCCC1)NC1(C(F)(F)F)C(=O)Nc2nc3c(C(F)(F)F)cc(Br)cc3n21 (stereo not drawn)
5.65

Can you share its pIC50? I mean this compound: O=C(CC1CCCCC1)NC1(C(F)(F)F)C(=O)Nc2nc3cc(F)c(F)cc3n21 (stereo not drawn)
5.44

###

- system.under.test: interaction between biotinylated human S100A9 and human RAGE-Fc (Homo sapiens)
- test.method.notes: AlphaScreen inhibition assay, Biot-hS100A9:hRAGE-Fc (S100A9-RAGE inhibition assay)
- assay.setup: biot-hS100A9 and rhRAGE-Fc, Ca2+ and Zn2+ in buffer
metric: pIC50
Friendly reminder that pIC50 comes from taking -log10 of the concentration in mol/L.

// query pIC50 value for entry Cc1cc2nc3n(c2cc1C)C(NC(=O)c1ccc(-c2ccccc2)cc1)(C(F)(F)F)C(=O)N3 (stereo not drawn)
5.70

Give the measured pIC50 of CC(=O)c1cccc2c1nc1n2C(NC(=O)CCC2CCCC2)(C(F)(F)F)C(=O)N1 (stereo not drawn) [Example 122] .
5.82

Report pIC50 for O=C(CCC1CCCC1)NC1(C(F)(F)F)C(=O)Nc2nc3c(OC(F)(F)F)cccc3n21 (stereo not drawn) please.
5.83

Which pIC50 reading was recorded for the compound O=C(NC1(C(F)(F)F)C(=O)Nc2nc3cc(Cl)c(Cl)cc3n21)C1CCN(C(=O)C2CCCC2)C1 (racemic) ?
5.64

Item CC(C)(C)c1ccc(-c2cccc3c2nc2n3C(NC(=O)CCC3CCCC3)(C(F)(F)F)C(=O)N2)cc1 (stereo not drawn) has what recorded pIC50?
5.83

###

- system.under.test: interaction between biotinylated human S100A9 and human RAGE-Fc (Homo sapiens)
- test.method.notes: AlphaScreen inhibition assay, Biot-hS100A9:hRAGE-Fc (S100A9-RAGE inhibition assay)
- assay.setup: biot-hS100A9 and rhRAGE-Fc, Ca2+ and Zn2+ in buffer
- Description: FIG. 1 is a schematic representation of an assay of the inhibition of the interaction between biotinylated human S100A9 and human RAGE-Fc using a small molecule S100A9 binder. Inhibition Assay, Biot-hS100A9:hRAGE-Fc […] In the AlphaScreen Inhibition Assay described here, protein A (Staphylococcus aureus) conjugated Acceptor beads are used together with streptavidin coated Donor beads (Perkin Elmer 6760617M). […] After an additional incubation the signal is measured. […]
metric: IC50 (µM)
Report the value in µM with no unit label.

Use the examples below as a reference point.
molecule: O=C(CCC1CCCC1)NC1(C(F)(F)F)C(=O)Nc2nc3c(C(=O)O)cccc3n21 (stereo not shown) [Example 160]
numeric.result: 0.74
//
molecule: O=C(CCC1CCCC1)NC1(C(F)(F)F)C(=O)Nc2nc3c(Br)cc(Cl)cc3n21 (stereo not shown)
numeric.result: 1.45
//
molecule: Cc1cc2nc3n(c2cc1C)C(NC(=O)c1ccc(Cl)nc1)(C(F)(F)F)C(=O)N3 (stereo not shown)
numeric.result: 3.7

Read the next record carefully.
Consider the molecule Cc1cc2nc3n(c2cc1C)C(NC(=O)[C@@H](C)CC1CCCC1)(C(F)(F)F)C(=O)N3 (mixture of isomers) and give its measured IC50.
3.12
